The reader will find reported viability at 72 h, 25 mg/L values listed item by item below.
test: MTT-based viability assay; assay type: cell-based; conditions: human, MRC-5 human fibroblasts; 25 mg/L, 72 h; read-out: Viability of MRC-5 cells (% of viable cells ± SD)
Give your result in % as a bare value.

# example entries with known answers
[
  {
    "entrySmiles": "OB(O)c1ccc(Br)c(B(O)O)c1",
    "readingUnit": "%",
    "reportedResult": 92.1
  },
  {
    "entrySmiles": "OB(O)c1cccc(B(O)O)c1",
    "readingUnit": "%",
    "reportedResult": 75.2
  }
]

Turning now to a further record.
Q: Assign viability at 72 h, 25 mg/L to the following record: OB(O)c1c(F)c(F)c(F)c(F)c1B(O)O
Ans: 100

###

The reader will find reported MIC values listed item by item below.
system: K. pneumoniae 83 KPC-3(+), CTX-M-3(+); experiment: MIC of tested agent alone, microdilution; assay type: cell-based; conditions: Klebsiella pneumoniae; read-out: MIC of agent alone
Give your result in µg/mL as a bare value.

# example entries with known answers
[
  {
    "entrySmiles": "OB(O)c1cc(F)c(B(O)O)c(F)c1F",
    "MIC [µg/mL]": 100
  },
  {
    "entrySmiles": "OB(O)c1cc(F)c(B(O)O)c(F)c1",
    "MIC [µg/mL]": 400
  },
  {
    "entrySmiles": "OB(O)c1ccc(B(O)O)c(F)c1F",
    "MIC [µg/mL]": 200
  },
  {
    "entrySmiles": "OB(O)c1cc(Br)c(B(O)O)cc1Br",
    "MIC [µg/mL]": 200
  }
]

Q: Assign MIC to the following record: OB(O)c1cc(F)c(F)c(B(O)O)c1
Ans: 400

Q: Assign MIC to the following record: OB(O)c1cc(B(O)O)c(F)cc1F
Ans: 200

Q: Assign MIC to the following record: OB(O)c1cc(F)ccc1F
Ans: 100

###

test system: E. coli 77 CMY-2-positive; assay: combination disc test CDT-AmpC; assay type: cell-based; conditions: Escherichia coli; agent 0.3 mg per disc; read-out: Diameter of inhibition zone, CAZ-30 disc with agent
The reader will find reported zone of inhibition at 300 µg/disc values listed item by item below.
Express the reported value numerically, then name its unit.

[
  {
    "compound": "OB(O)c1cccc(F)c1B(O)O [3b]",
    "reportedResult": "25 mm"
  },
  {
    "compound": "OB(O)c1c(F)c(F)c(F)c(F)c1B(O)O [3d]",
    "reportedResult": "21 mm"
  },
  {
    "compound": "OB(O)c1ccc(B(O)O)c(B(O)O)c1 [4b, benzene-1,2,4-triboronic]",
    "reportedResult": "21 mm"
  }
]

Q: Answer briefly: zone of inhibition at 300 µg/disc recorded on E. coli 77 CMY-2-positive for OB(O)c1cc(C(F)(F)F)cc(B(O)O)c1F [2e]
Ans: 19 mm

Q: Answer briefly: zone of inhibition at 300 µg/disc recorded on E. coli 77 CMY-2-positive for OB(O)c1ccc(B(O)O)cc1 [1a]
Ans: 21 mm

Q: Answer briefly: zone of inhibition at 300 µg/disc recorded on E. coli 77 CMY-2-positive for OB(O)c1ccc(Br)c(B(O)O)c1 [2f]
Ans: 19 mm
